Property: GI50; scope: individual compounds
system: HT-29; experiment: NCI tumour cell line growth inhibition, 48 h
Active and inactive are the calls of the source. Rule as the data show it: active = GI50 up to about 1.1 µM and inactive = higher.
propertyMeasured: GI50

COC(=O)C(Cc1c[nH]c2ccccc12)NP(=O)(O)OCC1OC(n2ccc(N)nc2=O)C(O)C1O (stereo not given) : > 100 µM (inactive)
N#CC(Cc1ccccc1Br)N(CCC1=CCCCC1)C(c1ccccc1)c1ccccc1 (stereo not given) : 32.9 µM (inactive)
COc1cc2c(cc1Cl)[n+]([O-])c(C#N)c(N1CCN(c3ccc([N+](=O)[O-])cc3)CC1)[n+]2[O-] : 36.9 µM (inactive)
CNC1c2ccccc2C(=O)c2cc3c(cc21)OCCOCCOCCOCCO3 (stereo not given) : 54 µM (inactive)
O=C1Nc2ccccc2Cn2c1cc1oc(-c3ccccc3)cc12 : > 100 µM (inactive)
CCCCCCn1c(SCC)c2ccccc2c1-c1nc(F)nc(F)n1 : > 100 µM (inactive)
CS(=O)(=O)OCOS(C)(=O)=O : 48.3 µM (inactive)
CNC(=O)N(CCC#N)CCN(C(=O)N(C)C)c1ccccc1 : > 100 µM (inactive)
BC(=O)NC(CC(C)C)C(=O)NCC(=O)NC1c2ccsc2C(=O)C1O.CN(C)C (stereo not given) : > 100 µM (inactive)
COC(=O)c1cn(CC(O)CCl)nn1 (stereo not given) : > 100 µM (inactive)
[O-][n+]1onc(-c2ccccc2)c1-c1no[n+]([O-])c1-c1c(-c2ccccc2)no[n+]1[O-] : 3.62 µM (inactive)
COc1cc(O)c(C(=O)CC(C)=O)c(OC)c1 : > 100 µM (inactive)
CCOC(=O)C(=O)Nc1c(F)cc(F)cc1Br : > 100 µM (inactive)
O=C(NCCN1CCCCC1)c1cccc(I)c1 : 49.7 µM (inactive)
NC(=O)[C@H](Cc1ccc(O)cc1)NC1=C(Cl)C(=O)c2c(O)ccc(O)c2C1=O : 2.38 µM (inactive)
[C-]#[N+]C1(C(=O)OCC)CC1 : > 100 µM (inactive)
C/C(CC(=O)Nc1cc(C)ccc1C)=N/N=C(N)N : > 100 µM (inactive)
CC(=O)Oc1ccccc1C(=O)Nc1ncc([N+](=O)[O-])s1 [NITAZOXANIDE] : 15.5 µM (inactive)
Cc1nc2ccccc2n1C(=O)c1c(F)c(F)c(F)c(F)c1F : 4.98 µM (inactive)
Nc1nc(-c2ccccc2)cc(-c2ccc(OCc3ccccc3)cc2O)n1 : 37.8 µM (inactive)
O=C1c2cc(Cl)ccc2-n2cnnc2C2CSCN12 (stereo not given) : > 100 µM (inactive)
CCCCCC/C=C\CCCCCCCCCc1cccc(OC)c1O : > 100 µM (inactive)
O=C1CCCC2C(O)CCC[C@H]12 (stereo not given in full) : > 100 µM (inactive)
CC(C)(C)NC1C2CCC(C)(C1O)C2(C)C (stereo not given) : > 100 µM (inactive)
CCOC(=O)[C@@H](NC(=O)OC(C)(C)C)[C@@H](O)C(=O)OCC : > 100 µM (inactive)
CN(C)CCCN1N=Nc2cccc3cccc1c23 : 33.3 µM (inactive)
Nc1nc(Cl)cc(Oc2ccc(Cl)cc2)n1 : > 100 µM (inactive)
COc1cc(O)c(C(=O)/C=C/c2ccc(O)cc2)cc1Oc1ccc(/C=C/C(=O)c2ccc(O)cc2O)cc1 [RHUSCHALCONE III] : 7.57 µM (inactive)
Oc1ccc2c(c1)CC[N+]1=C2CCC2CCCC21 (stereo not given) [QUINDONIUM BROMIDE] : > 100 µM (inactive)
O=c1c2cc3c(cc2c2cccc4c2n1CCC4)OCO3 : 51.1 µM (inactive)
Cc1cc(S(=O)(=O)Nc2nnc3c(C(F)(F)F)cc(Cl)cn23)c(S)cc1Cl : > 100 µM (inactive)
CN1C/C(=C\c2cccs2)C2=NN(C)C(c3cccs3)C2C1 (stereo not given) : 61.1 µM (inactive)
Cc1ccc2[nH]c3c(c(=O)n(C)c(=O)n3C)c2c1 : > 100 µM (inactive)
O=C(CSc1nnc(Cc2ccccc2)o1)Nc1ccc(Cl)cc1[N+](=O)[O-] : 22.3 µM (inactive)
COc1cccc(C2c3cc4c(cc3OC(O)(CO)C2C(=O)O)OCO4)c1.COc1cccc(C2c3cc4c(cc3OC3(O)COC(=O)C23)OCO4)c1 (stereo not given) : 37.7 µM (inactive)
CC(=O)NN(c1ccccc1)C1CCN(c2ccccc2)N1C(C)=O (stereo not given) : 5.74 µM (inactive)
CN(C)CN1CSC(=S)N(CN(C)C)C1 : > 100 µM (inactive)
Cc1ccc(C(O)c2cnc(C)n2Cc2ccccc2)cc1 (stereo not given) : > 100 µM (inactive)
O=c1[nH]nc(Cc2ccc(Cl)cc2)n1CCO : > 100 µM (inactive)
COc1cc(/C=C2\CCc3ccccc3C2=O)cc(OC)c1OC : 17.5 µM (inactive)
COc1ccc(/C(C#N)=C/c2ccc(OC)c(OC)c2)cc1 : > 100 µM (inactive)
CC(=O)N1CCc2[nH]c3ccccc3c2CC1 : > 100 µM (inactive)
COc1nc(SC)nc2c1cnn2C1OC(C(O)CO)C(OC)C1O (stereo not given) : 52.4 µM (inactive)
CCOc1ccc(N2C(=O)C3c4[nH]c5ccccc5c4C4CCC(C(C)(C)C)CC4C3C2=O)cc1 (stereo not given) : 32.1 µM (inactive)
CSc1[nH]nc(N)c1C(=O)Nc1ccc(C)cc1 : > 100 µM (inactive)
